# Test system: TO-N3 (biotin conjugate)
# Assay remarks: pull-down binding Z-score (relative to library population); higher = stronger binding
# Condition parameters: RNA library: Library-2
Where pull-down binding Z-score equals or exceeds 0.2, the correct label is Fulfilled; where it does not, the label is Not fulfilled.

// below: answered sequences
Record sequence: GUGAGAUGUUCAUACAAUCCCUCAC [hsa-mir-216a]
Subject of test: TO-N3 (biotin conjugate)
Classification: Not fulfilled
--
Record sequence: CAGAGGUCCCACAGCAGGGCUGGAAAGCACACCUGUGGGACUUCUG [hsa-mir-3922]
Subject of test: TO-N3 (biotin conjugate)
Classification: Fulfilled
--
Record sequence: CUCAUGAUAUGUUUGCCCCAUCAGCGUGUCACGAG [hsa-mir-3616]
Subject of test: TO-N3 (biotin conjugate)
Classification: Not fulfilled

Is pull-down binding Z-score at least 0.2? Consider GGGGUAGAAGCCACCCG [hsa-mir-4466]
Fulfilled

Same question for UGUUUUCUACAAAGAAAACA [SHAPE_invivo_SARS-CoV-2_Motif_122] please.
Not fulfilled
